- assayed-system: UniProtKB P35228
- Sequence (P35228 whole entry): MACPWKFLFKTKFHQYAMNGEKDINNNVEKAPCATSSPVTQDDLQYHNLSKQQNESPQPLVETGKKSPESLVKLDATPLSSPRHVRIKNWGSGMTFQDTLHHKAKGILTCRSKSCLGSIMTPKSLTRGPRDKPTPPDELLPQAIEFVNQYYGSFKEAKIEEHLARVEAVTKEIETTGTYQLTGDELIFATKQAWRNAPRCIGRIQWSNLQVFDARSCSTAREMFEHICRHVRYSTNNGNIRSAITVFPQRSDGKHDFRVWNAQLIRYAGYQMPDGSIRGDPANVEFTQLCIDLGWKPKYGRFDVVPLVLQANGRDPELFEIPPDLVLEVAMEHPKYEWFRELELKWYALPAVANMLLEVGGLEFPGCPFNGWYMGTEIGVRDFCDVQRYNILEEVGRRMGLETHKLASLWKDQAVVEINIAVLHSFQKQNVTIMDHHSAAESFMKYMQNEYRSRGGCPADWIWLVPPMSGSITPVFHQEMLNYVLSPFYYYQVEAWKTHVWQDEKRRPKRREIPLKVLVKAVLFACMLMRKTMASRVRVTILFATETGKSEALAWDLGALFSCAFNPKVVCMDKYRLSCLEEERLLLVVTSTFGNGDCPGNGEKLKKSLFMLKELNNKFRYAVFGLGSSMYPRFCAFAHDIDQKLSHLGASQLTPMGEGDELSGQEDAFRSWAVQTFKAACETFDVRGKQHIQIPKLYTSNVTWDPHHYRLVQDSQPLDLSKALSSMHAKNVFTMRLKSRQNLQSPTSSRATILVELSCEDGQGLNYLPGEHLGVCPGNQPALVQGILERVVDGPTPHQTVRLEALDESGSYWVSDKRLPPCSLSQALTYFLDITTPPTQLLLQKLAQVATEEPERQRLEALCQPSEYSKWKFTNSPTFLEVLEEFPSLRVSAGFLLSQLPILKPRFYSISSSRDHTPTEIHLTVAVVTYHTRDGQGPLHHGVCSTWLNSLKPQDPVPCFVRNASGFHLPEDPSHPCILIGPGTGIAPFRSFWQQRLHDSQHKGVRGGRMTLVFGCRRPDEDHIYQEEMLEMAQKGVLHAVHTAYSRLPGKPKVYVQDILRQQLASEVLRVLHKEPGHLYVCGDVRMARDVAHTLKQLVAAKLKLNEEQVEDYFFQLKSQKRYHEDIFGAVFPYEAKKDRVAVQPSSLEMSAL
- assay-details: Inhibition of human iNOS using L-arginine as substrate assessed as reduction in NO production in the presence of NADPH by NO-hemoglobin capture assay
measured-quantity: Ki (µM)

Query: Would you kindly share the measured Ki for `Cc1cc(N)nc(CCCCN(C)C)c1` ?
Response: 7.67

Query: Data request, read-out Ki, for `Cc1cc(N)nc(C#CCCN(C)C)c1`
Response: 29.8

1: Cc1cc(N)nc(CCCN2CCC(F)(F)CC2)c1
2: Cc1cc(N)nc(CCCN2CC(F)(F)C2)c1
3: Cc1cc(N)nc(C#CCN2CC(F)(F)C2)c1
4: Cc1cc(N)nc(C#CCN2CCC(F)(F)CC2)c1
Query: Order the records, beginning with the lowest Ki and ending with the highest. Provide the ranking by listing each label in its place in the requested order.
Response: 2, 1, 3, 4
(2: 4.36 µM, 1: 6.48 µM, 3: 11.1 µM, 4: 27.4 µM)
